- PROCEDURE_SUMMARY: Pharmacokinetics of artesunate (AS) in plasma after multiple intravenous doses, compartmental analysis (Phase 1b)
- Type: in vivo, human
- DETAILS: human, plasma, iv, 2 mg/kg, Day 2; AS 2 mg/kg iv daily for 3 days, 2 min infusion; mean (CV%), n = 6; CA; read-out: CL_obs
REPORTED_METRIC: clearance (mL/min/kg)
Response body: numeric value in mL/min/kg, unit text excluded.

Input line: Tell me the measured clearance of C[C@H]1[C@H](OC(=O)CCC(=O)O)O[C@@H]2O[C@@]3(C)CC[C@H]4[C@H](C)CC[C@@H]1[C@@]24OO3 [AS] , please.
Output line: 29.5
